Tested on: OVCAR-8 ovarian
protocol_notes: NCI-60 one-dose screen, 48 h (100 = growth as untreated, 0 = no growth, -100 = all killed)
condition_label: 10 µM unless noted
Procedure: Growth inhibition of the OVCAR-8 human tumor cell line is measured as a screen for anti-cancer activity. Cells are grown in 96 well plates and exposed to the test compound for 48 hours. Compounds are tested at a single concentration, which is 10^-5 M for most compounds. The reported endpoint is percent growth (GI% or GIPRCNT), where numbers from 0 - 100% represent growth inhibition, and numbers from -100% - 0 represent cell death. For example, a value of 40 represents 60% growth inhibition. […]
About 83,000 compounds went through this panel and 20% of them were active in at least one assay; those are over-represented in the sample as a whole.
growth strictly under 50% means criterion met; at 50% or over means criterion not met.

Past entries and their recorded results:
- query_smiles: "Cc1ncn(-c2ccc(/C=N/Nc3ccnc4cc(Cl)ccc34)cc2)c1C"
  label: "criterion met"
- query_smiles: "COc1ccc(NC2=C(Br)C(=O)C(C)=C(C)C2=O)cc1OC"
  label: "criterion not met"
- query_smiles: "C#C[C@]1(O)CC[C@H]2[C@@H]3CC=C4c5sc(Nc6cc(C)cc(C)c6)nc5CC[C@]4(C)[C@H]3CC[C@@]21C"
  label: "criterion not met"
- query_smiles: "O=c1c2cc(-c3ccc(F)cc3F)ccc2n(O)c(=O)n1-c1cccc(C(F)(F)F)c1"
  label: "criterion met"

Is 50% strictly greater than the compound's reported growth? compound: O=C(CSc1nnc(-c2ccc(Cl)cc2)n1-c1ccccc1)Nc1ccccc1Cl criterion not met

Is 50% strictly greater than the compound's reported growth? compound: O=C(Nc1ccc(Cl)c(C(F)(F)F)c1)Nc1ccc2oc(=O)ccc2c1 criterion met

Is 50% strictly greater than the compound's reported growth? compound: O=C(N/N=C/c1cc2ccccc2nc1Cl)c1cc(-c2nc3ccccc3[nH]2)nc2ccccc12 criterion not met

Is 50% strictly greater than the compound's reported growth? compound: CCOC(=O)c1ccc(NC2=CC(=O)C(C)=C(C)C2=O)cc1 criterion not met

Is 50% strictly greater than the compound's reported growth? compound: Cc1cc2nc(C(Cl)Cl)nc(-c3ccc(S(=O)(=O)N(C)C)cc3)n2n1 criterion met
